B1: Twister Ribozyme (parent)
chain: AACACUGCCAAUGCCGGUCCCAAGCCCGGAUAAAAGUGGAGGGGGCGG

# Variants of: B1
# procedure_summary: self-cleavage, relative activity (ratio to wild type); higher = more cleavage; co-transcriptional
Record Y whenever self-cleavage is at 0.2 or higher; record N when lower.

G7U G24U = N

query: Evaluate G13A A32U : self-cleavage at minimum 0.2?
result: Y

query: Evaluate G7C G13A : self-cleavage at minimum 0.2?
result: N

query: Evaluate C3A A40G : self-cleavage at minimum 0.2?
result: N

query: Evaluate C5U A32G : self-cleavage at minimum 0.2?
result: Y

query: Evaluate G13U G48C : self-cleavage at minimum 0.2?
result: Y
